- system: T1, recombinant human regenerating islet-derived protein 1α (REG1A) (human, UniProt P05451 23-166, limits assumed)
- T1 construct: also called recombinant human REG1A; recombinant REG1A
- T1 sequence (looked up): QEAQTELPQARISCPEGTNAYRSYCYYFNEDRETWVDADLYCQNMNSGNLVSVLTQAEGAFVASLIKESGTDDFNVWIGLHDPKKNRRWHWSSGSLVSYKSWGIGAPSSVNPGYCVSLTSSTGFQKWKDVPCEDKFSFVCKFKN
- assay: sandwich ELISA; capture 12F12A10; REG1A 1.23 ng/mL
measuredProperty: OD value (OD)
Expressed in OD, but write only the number.

{"binder": "antibody 4H8F1 (antibody, V domains shown, Mouse monoclonal from hybridoma, stated mouse IgG1/Kappa; also called 4H8F1-biotin; Antibody 1) VH: QVTLKESGPGILQPSQTLSLTCSFSGFSLSTSGMSVGWIRQPSGKGLEWLAHIWWNDDKFYNPALKSRLTISKDTSKNQIFLKIASVVTADSATYYCARIEEGWFAYWGQGTLVTVST VL: SIVMTQTPKFLLVSVGDRVTITCKASQTMSNDVAWYQQKPGQSPKLLIYYASNRYTGVPDRFTGSGYGTDFTFTISTVQAEDLAVYFCQQDYSSPLTFGAGTKLELKR", "measurement": 1.3}

Qu. Specify OD value for antibody 21B11D2 (antibody, mouse IgG2b, kappa, V domains shown, Mouse monoclonal from hybridoma, stated mouse IgG1/Kappa; Used unlabelled as capture and biotin-labelled as detection antibody; also called 21B11D2-biotin) VH: QAQLQQSGAELVRPGASVTLSCKASGYIFTDYEMHWVKQTPVHGLEWIGAIDPETGGTAYNQKFKGKARLTADKSSSTAYMELRSLTSEDSAVYYCTIYYTNHFDYWGQGTTLTVSS VL: DVVMTQTPLSLPVSLGDQASISCRSSQSLVYSNGDTYLYWYLQKPGQSPKLLIYKVSNRFSGVPDRFSGSGSGTDFTLKISRVEAEDLGVYFCSQSTHVPLTFGAGTKLELKR and stop.
Ans. 1.18

Qu. Specify OD value for antibody 11D11B11 (antibody, mouse IgG2a, kappa, V domains shown, Mouse monoclonal from hybridoma, stated mouse IgG1/Kappa; Used unlabelled as capture and biotin-labelled as detection antibody; also called 11D11B11-biotin) VH: DVKLVESGGGLVKPGGSLKLSCAASGFTFSSFSMSWFRQTPDKRLEWVATISSGGSSTYYPDSVKGRFTISRDNAKNTLYLQMTSLKSEDTAIFYCRGGYYGNYDPLDYWGQGTSVTVSA VL: DIVMIQSQKFMSTSVGDRVSITCTASHNVDSNVAWYQQKPGQSPQALIYSASYRYSGVPDRFTGSGSGTDFTLTINNVQSEDLAEYFCQQYNSYPLTFGGGTRLEIKR and stop.
Ans. 0.934

Qu. Specify OD value for antibody 12F12A10 (antibody, V domains shown, Mouse monoclonal from hybridoma, stated mouse IgG1/Kappa; also called 12F12A10-biotin; Antibody 2) VH: QVQLQQSATELARPGASVKMSCKASGYTFTSYMMHWVKQRPGQGLEWIGYINPSSGYTDYNQKFKDKTTLTADKSSSTAYMQLSSLTSEDSAVYYCARYRYPHYFDYWGQGTTLTVSS VL: QIVLTQSPAIMSASPGEKVTMTCSASSSVSYIHWYQQKSGTSPKRWIYDTSKLASGVPARFSGSGSGTSYSLTISSMEAEDAAIYYCQQWSSNPPTFGAGTKLELKR and stop.
Ans. 0.098
